Test system: COLO 205
Assay protocol: Growth inhibition of human COLO205 cells after 48 hrs by SRB protein assay
Type: functional
Condition notes: COLO 205, 48 h
Measured GI50 accompanies every entry in the list below.
Please state the figure in µM; there is no need to write the unit.

Worked cases, GI50 given:
# Compound, GI50, µM
records = [
    ("COc1ccc(NC(=O)CC2Sc3ncnn3C2=O)cc1 (configuration not stated)", 30.2),
    ("CCOC(=O)c1ccc(NC(=O)CC2Sc3ncnn3C2=O)cc1 (configuration not stated)", 21.4),
    ("O=C(CC1Sc2ncnn2C1=O)Nc1ccccc1 (configuration not stated)", 25.7),
    ("O=C(CC1Sc2ncnn2C1=O)Nc1ccc(Cl)cc1 (configuration not stated)", 19.5),
    ("O=c1/c(=C/c2ccc(Cl)cc2)sc2ncnn12", 17),
    ("O=c1/c(=C/c2ccc(F)cc2)sc2ncnn12", 61.7),
]

// GI50 lookup, compound = O=C(CC1Sc2ncnn2C1=O)Nc1ccc(Br)cc1 (configuration not stated) , result: 17.8

====

Test system: HT-29
Assay protocol: Growth inhibition of human HT29 cells after 48 hrs by SRB protein assay
Format: functional
Condition notes: HT-29, 48 h, read-out: Log TGI (converted)
Measured TGI accompanies every entry in the list below.

# Compound, TGI
rows = [
    ("CCOC(=O)c1ccc(NC(=O)CC2Sc3ncnn3C2=O)cc1 (configuration not stated)", "> 100 µM"),
    ("O=C(CC1Sc2ncnn2C1=O)Nc1ccc(Br)cc1 (configuration not stated)", "> 100 µM"),
    ("O=c1/c(=C/c2ccc(F)cc2)sc2ncnn12", "> 100 µM"),
    ("O=c1/c(=C/c2ccc(Cl)cc2)sc2ncnn12", "58.9 µM"),
]

// TGI lookup, compound = O=C(CC1Sc2ncnn2C1=O)Nc1ccc(Cl)cc1 (configuration not stated) , result: 75.9 µM

// TGI lookup, compound = O=C(CC1Sc2ncnn2C1=O)Nc1ccccc1 (configuration not stated) , result: > 100 µM

// TGI lookup, compound = COc1ccc(NC(=O)CC2Sc3ncnn3C2=O)cc1 (configuration not stated) , result: > 100 µM

====

Test system: RXF 393
Assay protocol: Growth inhibition of human RXF393 cells after 48 hrs by SRB protein assay
Format: functional
Condition notes: RXF 393, 48 h
Consider the cut-off 20 µM. If the recorded GI50 is strictly smaller, the label is t; if not, the label is f.

# example entries with known answers
# Molecule, Category
rows = [
    ("CCOC(=O)c1ccc(NC(=O)CC2Sc3ncnn3C2=O)cc1 (configuration not stated)", "f"),
    ("O=c1/c(=C/c2ccc(Cl)cc2)sc2ncnn12", "t"),
    ("O=C(CC1Sc2ncnn2C1=O)Nc1ccc(Cl)cc1 (configuration not stated)", "f"),
]

Given the entry O=c1/c(=C/c2ccc(F)cc2)sc2ncnn12 , would its reported GI50 be below 20 µM?
f

Given the entry O=C(CC1Sc2ncnn2C1=O)Nc1ccccc1 (configuration not stated) , would its reported GI50 be below 20 µM?
t

Given the entry O=C(CC1Sc2ncnn2C1=O)Nc1ccc(Br)cc1 (configuration not stated) , would its reported GI50 be below 20 µM?
t

Given the entry COc1ccc(NC(=O)CC2Sc3ncnn3C2=O)cc1 (configuration not stated) , would its reported GI50 be below 20 µM?
t

Cited source: ChEMBL document CHEMBL1147193
